Tested on: Vero E6
Experiment: cell viability relative to DMSO; higher = less toxic
Conditions: 72 h; 100 nM
cell viability: recorded values
REPORTED PROPERTY: cell viability (%)

Cc1n[nH]c2ccc(-c3cncc(OC[C@@H](N)Cc4ccccc4)c3)cc12 = 96.3
COc1cc(C2Oc3cc([C@H]4Oc5cc(O)cc(O)c5C(=O)[C@@H]4O)ccc3OC2CO)ccc1O (some centres undefined) = 101
CC(C)(C)N1CCC(c2ccccc2)(c2ccccc2)CC1 = 91.9
Cc1c(C(=O)Nc2ccc(N3C[C@@H](C)O[C@@H](C)C3)nc2)cccc1-c1ccc(OC(F)(F)F)cc1 = 102
CC(C)NNC(=O)c1ccncc1 = 101
CCOC(=O)Nc1ccc2c(c1)N(C(=O)CCN(CC)CC)c1ccccc1S2 = 103
CN1C(CCl)Nc2cc(Cl)c(S(N)(=O)=O)cc2S1(=O)=O (centres undefined) [methyclothiazide] = 94.8
CC(C)=CCC[C@](C)(O)[C@H]1CC[C@]2(C)[C@@H]1[C@H](O)C[C@@H]1[C@@]3(C)CC[C@H](O)C(C)(C)[C@@H]3[C@@H](O)C[C@]12C = 96.6
O=C(O)CCCCCCNC1c2ccccc2CCc2ccccc21 = 99
